# CRE luciferase EC50, 0% HSA per record follows
molecular target: human GLP-1 receptor (human, UniProt P43220); test: cell-based or functional assay
Where no end group is shown, it is not given here. [ ]: non-standard residue; d: D form. Aib = CC(C)(N)C(=O)O
Answer with a number only, understood to be in pM.

Solved cases below.
binder: HAEGTFTSDVSSYLEGQAAKEFIAWLVEKVKEFL-NH2 [[Glu34,Lys35,Val36,Lys37]-GLP-1-(7-37)-peptidyl-Glu-Phe-Leu amide]
CRE luciferase EC50, 0% HSA / pM: 116

binder: HGEGTFTSDVSSYLEGEAVKEFIAWLVEKVKEFL-NH2 [[Gly8,Glu23,Val25,Glu34,Lys35,Val36,Lys37]-GLP-1-(7-37)-peptidyl-Glu-Phe-Leu amide]
CRE luciferase EC50, 0% HSA / pM: 6080

Q: Give reported CRE luciferase EC50, 0% HSA value for HAEGTFTSDVSSYLEGQAAKEFIAWLVEGVKEFLEK [[Glu34,Val36,Lys37]-GLP-1-(7-37)-peptidyl-Glu-Phe-Leu-Glu-Lys]
A: 85

Q: Give reported CRE luciferase EC50, 0% HSA value for HAEGTFTSDVSSYLEGQAAKEFIAWLVEKVKEHL-NH2 [[Glu34,Lys35,Val36,Lys37]-GLP-1-(7-37)-peptidyl-Glu-His-Leu amide]
A: 40

Q: Give reported CRE luciferase EC50, 0% HSA value for HGEGTFTSDVSSYLEEEAVKEFIAWLVEKVKEKL-NH2 [[Gly8,Glu22,Glu23,Val25,Glu34,Lys35,Val36,Lys37]-GLP-1-(7-37)-peptidyl-Glu-Lys-Leu amide]
A: 300

Q: Give reported CRE luciferase EC50, 0% HSA value for H[Aib]EGTFTSDVSSYLEEEAVKEFIAWLVEKVKEF-NH2 [[Aib8,Glu22,Glu23,Val25,Glu34,Lys35,Val36,Lys37]-GLP-1-(7-37)-peptidyl-Glu-Phe amide]
A: 29

Q: Give reported CRE luciferase EC50, 0% HSA value for HAEGTFTSDVSSYLEGQAAKEFIAWLVEKVKEF-NH2 [[Glu34,Lys35,Val36,Lys37]-GLP-1-(7-37)-peptidyl-Glu-Phe amide]
A: 16
